# system: NaV 1.7 (Homo sapiens)
# Sequence (Q15858 whole entry): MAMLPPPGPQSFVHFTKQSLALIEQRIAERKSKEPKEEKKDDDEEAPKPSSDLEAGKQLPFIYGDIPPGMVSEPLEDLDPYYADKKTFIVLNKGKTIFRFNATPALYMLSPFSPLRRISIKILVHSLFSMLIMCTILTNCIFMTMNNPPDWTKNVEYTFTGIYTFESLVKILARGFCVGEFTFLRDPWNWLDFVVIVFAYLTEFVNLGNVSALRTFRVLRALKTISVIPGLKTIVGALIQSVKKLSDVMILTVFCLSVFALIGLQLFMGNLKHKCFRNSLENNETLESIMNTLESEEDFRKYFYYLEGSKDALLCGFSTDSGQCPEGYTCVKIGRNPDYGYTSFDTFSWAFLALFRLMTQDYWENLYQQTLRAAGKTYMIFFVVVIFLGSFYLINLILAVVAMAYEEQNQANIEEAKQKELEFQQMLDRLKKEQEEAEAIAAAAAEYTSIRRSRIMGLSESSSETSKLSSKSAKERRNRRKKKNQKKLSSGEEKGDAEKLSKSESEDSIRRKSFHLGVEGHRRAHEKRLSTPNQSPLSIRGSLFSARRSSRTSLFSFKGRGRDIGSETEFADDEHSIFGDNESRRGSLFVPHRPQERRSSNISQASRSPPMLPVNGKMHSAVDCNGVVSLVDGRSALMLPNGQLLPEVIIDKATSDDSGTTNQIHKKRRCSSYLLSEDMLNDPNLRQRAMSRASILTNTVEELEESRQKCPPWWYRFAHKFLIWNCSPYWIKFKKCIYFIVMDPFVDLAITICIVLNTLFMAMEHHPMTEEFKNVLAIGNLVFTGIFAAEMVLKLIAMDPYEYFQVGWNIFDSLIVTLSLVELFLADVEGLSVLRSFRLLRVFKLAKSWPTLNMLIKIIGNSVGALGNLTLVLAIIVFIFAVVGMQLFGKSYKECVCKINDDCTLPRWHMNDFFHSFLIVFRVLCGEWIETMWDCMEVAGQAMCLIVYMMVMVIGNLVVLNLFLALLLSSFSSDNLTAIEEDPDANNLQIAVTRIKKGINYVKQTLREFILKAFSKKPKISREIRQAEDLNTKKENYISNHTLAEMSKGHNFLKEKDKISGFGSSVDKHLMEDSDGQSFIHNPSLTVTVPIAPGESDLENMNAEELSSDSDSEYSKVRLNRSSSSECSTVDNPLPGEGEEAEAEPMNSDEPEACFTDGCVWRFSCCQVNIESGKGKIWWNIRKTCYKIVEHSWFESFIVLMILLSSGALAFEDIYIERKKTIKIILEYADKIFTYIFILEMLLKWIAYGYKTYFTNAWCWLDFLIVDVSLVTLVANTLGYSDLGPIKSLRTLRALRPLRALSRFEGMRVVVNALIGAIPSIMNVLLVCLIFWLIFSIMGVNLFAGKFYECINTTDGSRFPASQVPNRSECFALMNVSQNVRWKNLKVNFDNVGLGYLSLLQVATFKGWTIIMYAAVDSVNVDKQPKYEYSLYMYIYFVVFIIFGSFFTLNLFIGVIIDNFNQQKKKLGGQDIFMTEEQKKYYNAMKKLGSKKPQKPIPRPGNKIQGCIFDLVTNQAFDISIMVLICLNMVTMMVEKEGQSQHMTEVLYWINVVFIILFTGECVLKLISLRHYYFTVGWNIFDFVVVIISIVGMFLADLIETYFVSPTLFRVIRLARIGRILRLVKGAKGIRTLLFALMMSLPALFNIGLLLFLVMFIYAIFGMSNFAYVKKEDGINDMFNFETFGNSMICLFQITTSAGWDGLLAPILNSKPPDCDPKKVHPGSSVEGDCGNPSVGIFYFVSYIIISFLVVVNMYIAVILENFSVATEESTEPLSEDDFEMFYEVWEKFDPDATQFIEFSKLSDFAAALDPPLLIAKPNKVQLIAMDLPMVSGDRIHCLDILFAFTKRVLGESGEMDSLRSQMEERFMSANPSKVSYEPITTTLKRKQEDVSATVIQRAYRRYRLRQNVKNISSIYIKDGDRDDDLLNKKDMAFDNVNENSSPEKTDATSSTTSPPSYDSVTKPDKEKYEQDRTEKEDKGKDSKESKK
# protocol_notes: E-VIPR optical membrane potential assay with electrical stimulation
# details: active against one or more sodium channels; assay/subtype not specified in Table 4; read-out: IC50 Binned Activity Data
pIC50: −log10 of the molar value.
attribute_measured: pIC50

QUERY: Please look up its pIC50: O=C(c1cccc2cccnc12)N1CC[C@]2(c3ccccc3)OCOC2C1 (stereo partly shown)
RESULT: ≥ 5.70

QUERY: Similarly, COc1cc(C(=O)N2CC[C@]3(c4cc(F)cc(F)c4)OCOC3C2)ccc1OCCOC(F)(F)F (stereo partly shown) ?
RESULT: ≥ 5.70

QUERY: Similarly, O=C(c1ccc(OCCOC(F)(F)F)c(Cl)c1)N1CCC2(c3ccccn3)CC2C1 (stereo not shown) ?
RESULT: ≥ 5.70

QUERY: Similarly, COc1cc(C(=O)N2CC[C@@]3(c4nccs4)OCOC3C2)ccc1OCC(C)(C)F (stereo partly shown) ?
RESULT: < 5.30

QUERY: Similarly, COc1cc(C(=O)N2CC[C@]3(c4cccc(F)c4)OCOC3C2)ccc1OCC1CCC1 (stereo partly shown) ?
RESULT: 5.30 to 5.70

QUERY: Similarly, COc1cc(C(=O)N2CC[C@]3(c4cc(F)ccc4F)OCOC3C2)ccc1OCC1CC(F)(F)C1 (stereo partly shown) ?
RESULT: ≥ 5.70

QUERY: Similarly, [2H]C1([2H])OC2CN(C(=O)c3ccc(OCCOC(F)(F)F)c(C)n3)CC[C@]2(c2ccccn2)O1 (stereo partly shown) ?
RESULT: ≥ 5.70
